Tested on: SN12C renal
protocol description: NCI tumour cell line growth inhibition, 48 h
The following compounds are listed with their measured TGI values.
metric name: TGI

| compound | metric name | experimental result |
| --- | --- | --- |
| N#CC1C(N)=NNC12Nc1ccccc1S2 (stereo not drawn) | TGI | 60.2 µM |
| [Cl][Cu][Cl] | TGI | > 10 µM |
| CC1CCN(CCOc2ccc(CNc3ccc4nc(CCC5CCCCC5)[nH]c4c3)cc2)CC1 | TGI | 2.95 µM |
| C[C@@H](NC(=O)c1ccc(F)cc1)c1ccc2c(c1)CCN2C(=O)C1CCOCC1 | TGI | > 100 µM |
| CC(=O)O[C@@H]1[C@H]2[C@@H](OC(=O)c3ccccc3)[C@@H](C)C[C@]2(O)[C@H](OC(C)=O)[C@@]2(C)[C@@H]3C[C@@](C)(OC(C)=O)C[C@@H](OC(C)=O)[C@@]3(OC(C)=O)C[C@@]12C | TGI | > 10 µM |
| FC(F)(F)c1cccnc1Sc1nc2ccccc2s1 | TGI | > 100 µM |
| O=S(=O)(NCCCNc1cc(-c2cn(-c3ccccc3)nc2-c2cccc(O)c2)ccn1)c1ccc(F)cc1 | TGI | 28.2 µM |
| CC(C)N(Cc1ccc(F)cc1)c1ccc(CO)c(Cl)c1 | TGI | 23.2 µM |
| c1ccc(C2=C(c3ccccc3)Sc3nnc(CCCCCCCCc4nnc5n4NC(c4ccccc4)=C(c4ccccc4)S5)n3N2)cc1 | TGI | > 100 µM |
| O=C1/C(=C/c2cccs2)NC(=S)N1CN1CCCCC1 | TGI | > 100 µM |
| NC(CCCCNCc1ccccc1O)C(=O)O (stereo not drawn) | TGI | > 100 µM |
| CCN1C[C@]2(C)CC[C@H](OC)C34C5C[C@@H]6[C@@H](OC)C[C@@](OC)(C5[C@H]6OCc5ccccc5)C(C13)[C@H](OC(C)=O)[C@@H]42 (stereo partly drawn) | TGI | > 100 µM |
| CC(=O)Nc1ccc(S(=O)(=O)NN(C)S(=O)(=O)c2ccc(C)cc2)cc1 | TGI | > 100 µM |
| COc1ccc(/C=N\Nc2nc(SCC(C)C)nc(-c3ccc(OC)cc3)c2C#N)cc1 | TGI | 20.4 µM |
| O=C(O)CC12CC3CC(CC(O)(C3)C1)C2 | TGI | > 100 µM |
| NCc1ccc(-c2nc(-c3ccc(Cl)c(O)c3)c(-c3ccncc3)[nH]2)cc1 | TGI | > 25 µM |
| Cc1cc2c(c(=O)o1)C1=S(SC(c3ccccc3)=C1)S2 (stereo not drawn) | TGI | > 100 µM |
| CC(=O)N(CC(=O)C(=O)NNc1ccoc1)c1ccc(Cl)cc1 | TGI | > 100 µM |
| Oc1cccnc1/C=N/OCc1ccccc1 | TGI | > 100 µM |
| S=C(NCc1ccc2c(c1)OCO2)N1CCN(c2ncnc3c2oc2ccccc23)CC1 | TGI | > 100 µM |
| C=C1C=CC2(Br)OC3CC(C)(Cl)C(Br)CC13C2(C)C (stereo not drawn) | TGI | 37.7 µM |
| Cc1ccc(S(=O)(=O)N2CC(CCN)c3ccccc32)cc1 (stereo not drawn) | TGI | 10.7 µM |
| O=C(/C=C(\Nc1ccccc1O)c1ccc(Br)cc1)C(Cl)(Cl)Cl | TGI | 20 µM |
| COc1cc2c(cc1NC(=O)C(Cl)Cl)-c1ccc(NC(=O)C(Cl)Cl)cc1C2 | TGI | 19.6 µM |
| Cn1c(C(=O)c2cccc3ccccc23)nc2ccccc21 | TGI | > 100 µM |
| O=c1ccn(/C=C/C(O)C(O)CO)c(=O)[nH]1 (stereo not drawn) | TGI | > 100 µM |
| CN(C)C(F)=PC(F)(F)F (stereo not drawn) | TGI | > 100 µM |
| CC(C)CCC[C@@H](C)[C@H]1CC[C@H]2C3=C[C@H](OS(=O)(=O)O)[C@@]4(O)C[C@@H](O)CC[C@]4(C)[C@@]3(O)CC[C@]12C | TGI | > 100 µM |
| N#Cc1cccc(Nc2ncc(-c3ccccc3)o2)c1 | TGI | > 25 µM |
| O=C1/C(=C/c2ccccc2[N+](=O)[O-])COc2ccc(O)cc21 | TGI | 5.55 µM |
| BrCc1ccc(CBr)c2c1-c1c(CBr)ccc3ccc(CBr)c-2c13 | TGI | > 100 µM |
| Cc1c(C2=NN=C(N=Nc3c(O)cccc3O)/C2=C/c2ccccc2)c(=O)n(-c2ccccc2)n1C | TGI | > 100 µM |
| CC1CC(N2CCOCC2)=Nc2ccccc2N1Cc1ccccc1 (stereo not drawn) | TGI | > 100 µM |
| O=C(CO)C1CC2C=CC1C2 (stereo not drawn) | TGI | > 100 µM |
| O=C1CSC(c2ccccc2O)N1c1ccc(Oc2ccc(Cl)cc2)c(Cl)c1 (stereo not drawn) | TGI | 39.5 µM |
| COC(=O)c1cc([N+](=O)[O-])cc([N+](=O)[O-])c1Cl | TGI | 11 µM |
| O=C1/C(=C/c2ccccc2O)N=C(c2ccccc2)N1c1cc(C(F)(F)F)ccc1Cl | TGI | > 100 µM |
| c1cncc(CSc2ncnc3nc[nH]c23)c1 | TGI | > 100 µM |
